- Measured Target: Protein kinase C beta type (Homo sapiens, UniProt P05771)
- Sequence (P05771 whole entry): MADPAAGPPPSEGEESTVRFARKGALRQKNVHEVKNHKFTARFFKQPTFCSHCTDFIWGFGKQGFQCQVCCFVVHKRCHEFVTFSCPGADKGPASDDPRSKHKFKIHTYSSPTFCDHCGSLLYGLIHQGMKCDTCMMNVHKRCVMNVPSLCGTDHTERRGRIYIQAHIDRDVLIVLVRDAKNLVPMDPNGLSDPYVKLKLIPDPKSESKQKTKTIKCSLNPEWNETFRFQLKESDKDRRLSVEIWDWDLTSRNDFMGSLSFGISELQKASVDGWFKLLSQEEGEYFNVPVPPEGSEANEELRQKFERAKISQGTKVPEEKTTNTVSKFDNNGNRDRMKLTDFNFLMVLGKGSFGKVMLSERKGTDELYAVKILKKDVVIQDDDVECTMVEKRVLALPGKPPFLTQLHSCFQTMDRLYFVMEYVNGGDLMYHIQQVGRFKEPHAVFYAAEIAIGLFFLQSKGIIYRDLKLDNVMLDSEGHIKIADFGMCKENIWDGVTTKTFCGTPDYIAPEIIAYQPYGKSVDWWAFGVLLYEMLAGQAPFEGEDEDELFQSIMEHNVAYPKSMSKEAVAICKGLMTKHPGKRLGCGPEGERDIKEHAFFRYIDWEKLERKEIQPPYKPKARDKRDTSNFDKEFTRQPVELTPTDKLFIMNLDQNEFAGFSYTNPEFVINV
- Experimental Protocol: Inhibitory concentration against recombinant human Protein kinase C beta 2 isozyme
Measurement Type: IC50 (µM)
Answers are plain numbers, in µM.

Worked cases, IC50 given:
{"columns": ["Structure Smiles String", "IC50 (µM)"],
 "data": [
  ["O=C(N[C@@H]1CN2CCC(CC2)[C@H]1OC(=O)c1cc(O)c(C(=O)c2c(O)cccc2C(=O)O)c(O)c1)c1ccc(O)cc1", 0.069],
  ["N[C@@H]1C[C@@H](NC(=O)c2ccc(O)cc2)[C@H](OC(=O)c2cc(O)c(C(=O)c3c(O)cccc3C(=O)O)c(O)c2)C1", 0.002],
  ["COC(=O)N1C[C@@H](NC(=O)c2ccc(O)cc2)[C@H](OC(=O)c2cc(O)c(C(=O)c3c(O)cccc3C(=O)O)c(O)c2)C1", 2.7]
]}

Could I get IC50 for every one of these entries?
1. O=C(N[C@@H]1C[C@@H](CO)C[C@H]1OC(=O)c1cc(O)c(C(=O)c2c(O)cccc2C(=O)O)c(O)c1)c1ccc(O)cc1
2. O=C(N[C@@H]1C[C@H](CO)C[C@H]1OC(=O)c1cc(O)c(C(=O)c2c(O)cccc2C(=O)O)c(O)c1)c1ccc(O)cc1

0.02
0.003

* * *

Would you mind telling me the reported IC50 of each entry?
- Measured Target: Protein kinase C delta type (Homo sapiens)
- Sequence (Q05655 whole entry): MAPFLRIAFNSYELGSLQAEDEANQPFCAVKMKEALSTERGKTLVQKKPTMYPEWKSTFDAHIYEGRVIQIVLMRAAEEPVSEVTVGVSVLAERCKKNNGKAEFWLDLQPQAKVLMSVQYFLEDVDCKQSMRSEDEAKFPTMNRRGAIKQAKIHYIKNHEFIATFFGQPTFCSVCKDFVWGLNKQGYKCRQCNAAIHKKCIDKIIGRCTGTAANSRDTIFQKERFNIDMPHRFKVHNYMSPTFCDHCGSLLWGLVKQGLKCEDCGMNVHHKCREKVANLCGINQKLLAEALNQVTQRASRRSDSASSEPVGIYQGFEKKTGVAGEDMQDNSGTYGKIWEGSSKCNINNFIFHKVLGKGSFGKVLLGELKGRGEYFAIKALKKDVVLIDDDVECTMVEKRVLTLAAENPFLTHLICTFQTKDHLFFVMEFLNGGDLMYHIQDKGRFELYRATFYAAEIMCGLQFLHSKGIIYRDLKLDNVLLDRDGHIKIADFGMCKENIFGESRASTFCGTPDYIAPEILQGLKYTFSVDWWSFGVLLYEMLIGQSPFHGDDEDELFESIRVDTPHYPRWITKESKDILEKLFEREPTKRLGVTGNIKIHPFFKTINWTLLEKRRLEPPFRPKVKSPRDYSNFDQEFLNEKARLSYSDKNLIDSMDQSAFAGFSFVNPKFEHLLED
- Experimental Protocol: Inhibitory concentration against recombinant human Protein kinase C delta isozyme
Numbers only, in nM.

Worked cases, IC50 given:
{"columns": ["Compound", "Measured Target", "IC50 / nM"],
 "data": [
  ["O=C(N[C@@H]1C[C@@H](O)C[C@H]1OC(=O)c1cc(O)c(C(=O)c2c(O)cccc2C(=O)O)c(O)c1)c1ccc(O)cc1", "Protein kinase C delta type (Homo sapiens)", 6],
  ["CC(C)N1C[C@@H](NC(=O)c2ccc(O)cc2)[C@H](OC(=O)c2cc(O)c(C(=O)c3c(O)cccc3C(=O)O)c(O)c2)C1", "Protein kinase C delta type (Homo sapiens)", 40],
  ["COC(=O)N1C[C@@H](NC(=O)c2ccc(O)cc2)[C@H](OC(=O)c2cc(O)c(C(=O)c3c(O)cccc3C(=O)O)c(O)c2)C1", "Protein kinase C delta type (Homo sapiens)", 100]
]}

Could I get IC50 for every one of these entries?
1. O=C(N[C@@H]1CSCCC[C@H]1OC(=O)c1cc(O)c(C(=O)c2c(O)cccc2C(=O)O)c(O)c1)c1ccc(O)cc1
2. O=C(N[C@@H]1CNCCC[C@H]1OC(=O)c1cc(O)c(C(=O)c2c(O)cccc2C(=O)O)c(O)c1)c1ccc(O)cc1
3. O=C(N[C@@H]1C[C@H](CO)C[C@H]1OC(=O)c1cc(O)c(C(=O)c2c(O)cccc2C(=O)O)c(O)c1)c1ccc(O)cc1

90
4
4

Could I get IC50 for every one of these entries?
1. NC[C@H]1C[C@@H](NC(=O)c2ccc(O)cc2)[C@H](OC(=O)c2cc(O)c(C(=O)c3c(O)cccc3C(=O)O)c(O)c2)C1
2. CS(=O)(=O)N1C[C@@H](NC(=O)c2ccc(O)cc2)[C@H](OC(=O)c2cc(O)c(C(=O)c3c(O)cccc3C(=O)O)c(O)c2)C1
3. O=C(N[C@@H]1CS(=O)(=O)CCC[C@H]1OC(=O)c1cc(O)c(C(=O)c2c(O)cccc2C(=O)O)c(O)c1)c1ccc(O)cc1
4. O=C(N[C@@H]1CC(O)C[C@H]1OC(=O)c1cc(O)c(C(=O)c2c(O)cccc2C(=O)O)c(O)c1)c1ccc(O)cc1 (some centres undefined)

6
35
4000
5

Could I get IC50 for every one of these entries?
1. NC[C@@H]1C[C@@H](NC(=O)c2ccc(O)cc2)[C@H](OC(=O)c2cc(O)c(C(=O)c3c(O)cccc3C(=O)O)c(O)c2)C1
2. CC1(C)C2CCC1(C)[C@@H](OC(=O)c1cc(O)c(C(=O)c3c(O)cccc3C(=O)O)c(O)c1)[C@@H]2NC(=O)c1ccc(O)cc1 (some centres undefined)
3. CC(=O)N1C[C@@H](NC(=O)c2ccc(O)cc2)[C@H](OC(=O)c2cc(O)c(C(=O)c3c(O)cccc3C(=O)O)c(O)c2)C1
4. O=C(N[C@@H]1C2CCC(C2)[C@H]1OC(=O)c1cc(O)c(C(=O)c2c(O)cccc2C(=O)O)c(O)c1)c1ccc(O)cc1 (some centres undefined)

[20, 340, 60, 20]

Values compiled from ChEMBL document CHEMBL1130164.
